Each entry below lists one item and its recorded AUC value.
- protocolDetails: AUC in Sprague-Dawley rat at 2 mg/kg, po administered through cassette dosing by LC-MS/MS analysis
- Type: ADME, organism-based
- runParameters: in vivo

>  <lineNotation>
CC(C)S(=O)(=O)c1ccc2nccc(Nc3n[nH]c4ccc(F)cc34)c2c1

>  <AUC (ng·h/mL)>
1100

$$$$
>  <lineNotation>
CS(=O)(=O)c1ccc2nccc(Nc3n[nH]c4ccc(F)cc34)c2c1

>  <AUC (ng·h/mL)>
1700

$$$$
>  <lineNotation>
CC(C)(C)S(=O)(=O)c1ccc2nccc(Nc3n[nH]c4ccc(F)cc34)c2c1

>  <AUC (ng·h/mL)>
980

$$$$

* * *

- protocolDetails: AUC in C57BL/6 mouse at 2 mg/kg, po by LC-MS/MS analysis
- Assay type: ADME, organism-based
- runParameters: in vivo
measureName: AUC

>  <lineNotation>
CC(C)(C)S(=O)(=O)c1ccc2nccc(Nc3n[nH]c4ccc(F)cc34)c2c1

>  <measured>
860 ng·h/mL

$$$$

* * *

- protocolDetails: Clearance in C57BL/6 mouse at 2 mg/kg, po or 1 mg/kg, iv by LC-MS/MS analysis
- Format: ADME, organism-based
- runParameters: in vivo

>  <lineNotation>
CC(C)(C)S(=O)(=O)c1ccc2nccc(Nc3n[nH]c4ccc(F)cc34)c2c1

>  <clearance, mL/min/kg>
13

$$$$

* * *

- protocolDetails: Clearance in Sprague-Dawley rat at 2 mg/kg, po or 1 mg/kg, iv by LC-MS/MS analysis
- Type: ADME, organism-based
- runParameters: in vivo

>  <lineNotation>
CC(C)(C)S(=O)(=O)c1ccc2nccc(Nc3n[nH]c4ccc(F)cc34)c2c1

>  <clearance / mL/min/kg>
15

$$$$

* * *

- target: Vascular endothelial growth factor receptor 2 (Homo sapiens)
- Sequence (P35968 whole entry): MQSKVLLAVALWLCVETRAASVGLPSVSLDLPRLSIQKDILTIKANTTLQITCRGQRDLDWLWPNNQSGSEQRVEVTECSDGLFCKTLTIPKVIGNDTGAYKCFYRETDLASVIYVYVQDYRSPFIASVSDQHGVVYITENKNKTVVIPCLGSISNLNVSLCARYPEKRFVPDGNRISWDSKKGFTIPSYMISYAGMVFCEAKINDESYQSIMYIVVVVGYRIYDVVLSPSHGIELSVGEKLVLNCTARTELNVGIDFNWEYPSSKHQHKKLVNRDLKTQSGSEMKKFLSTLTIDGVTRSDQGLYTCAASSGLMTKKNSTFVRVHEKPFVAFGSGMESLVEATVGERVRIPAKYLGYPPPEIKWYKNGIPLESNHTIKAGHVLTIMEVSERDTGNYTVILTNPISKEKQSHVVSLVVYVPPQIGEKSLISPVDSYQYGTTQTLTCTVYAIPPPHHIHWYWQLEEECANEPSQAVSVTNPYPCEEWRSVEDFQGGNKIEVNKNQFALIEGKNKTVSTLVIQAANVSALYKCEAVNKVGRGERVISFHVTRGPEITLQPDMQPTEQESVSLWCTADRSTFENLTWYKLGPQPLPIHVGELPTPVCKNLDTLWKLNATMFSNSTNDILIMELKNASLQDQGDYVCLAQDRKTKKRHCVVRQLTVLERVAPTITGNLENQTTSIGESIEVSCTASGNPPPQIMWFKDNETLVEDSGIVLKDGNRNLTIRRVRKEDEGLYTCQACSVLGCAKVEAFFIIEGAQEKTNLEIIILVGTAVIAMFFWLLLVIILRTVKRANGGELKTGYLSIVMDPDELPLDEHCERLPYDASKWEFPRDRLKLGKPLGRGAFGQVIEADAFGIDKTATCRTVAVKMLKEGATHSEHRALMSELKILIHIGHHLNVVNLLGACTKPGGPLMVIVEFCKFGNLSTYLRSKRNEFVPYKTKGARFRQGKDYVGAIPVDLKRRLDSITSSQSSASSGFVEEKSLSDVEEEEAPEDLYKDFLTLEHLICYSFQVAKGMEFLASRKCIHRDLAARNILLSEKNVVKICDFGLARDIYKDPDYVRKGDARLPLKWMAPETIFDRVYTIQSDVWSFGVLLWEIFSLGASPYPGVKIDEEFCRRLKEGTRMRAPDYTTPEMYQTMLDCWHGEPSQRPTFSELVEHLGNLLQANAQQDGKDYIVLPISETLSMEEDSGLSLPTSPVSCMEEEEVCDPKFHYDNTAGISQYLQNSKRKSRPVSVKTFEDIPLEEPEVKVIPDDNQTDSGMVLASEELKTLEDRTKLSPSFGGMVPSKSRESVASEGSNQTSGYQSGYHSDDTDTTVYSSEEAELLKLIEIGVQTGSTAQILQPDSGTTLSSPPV

>  <lineNotation>
CC(C)(C)S(=O)(=O)c1ccc2nccc(Nc3n[nH]c4ccc(F)cc34)c2c1

>  <IC50>
> 5 µM

$$$$

* * *

- protocolDetails: Half life in Sprague-Dawley rat at 2 mg/kg, po and 1 mg/kg, iv by LC-MS/MS analysis
- Assay type: ADME, organism-based
- runParameters: in vivo
measureName: half-life (h)

>  <lineNotation>
CC(C)(C)S(=O)(=O)c1ccc2nccc(Nc3n[nH]c4ccc(F)cc34)c2c1

>  <measured>
3.1

$$$$

* * *

- protocolDetails: Volume of distribution at steady state in C57BL/6 mouse at 2 mg/kg, po or 1 mg/kg, iv by LC-MS/MS analysis
- Assay type: ADME, organism-based
- runParameters: in vivo, read-out: Vdss
measureName: Vd (L/kg)

>  <lineNotation>
CC(C)(C)S(=O)(=O)c1ccc2nccc(Nc3n[nH]c4ccc(F)cc34)c2c1

>  <measured>
1.2

$$$$

* * *

- protocolDetails: Cmax in C57BL/6 mouse at 2 mg/kg, po by LC-MS/MS analysis
- Format: ADME, organism-based
- Parameters: dose 2 mg/kg, route oral
- runParameters: in vivo

>  <lineNotation>
CC(C)(C)S(=O)(=O)c1ccc2nccc(Nc3n[nH]c4ccc(F)cc34)c2c1

>  <Cmax (ng/mL)>
340

$$$$

* * *

- protocolDetails: Oral bioavailability in Sprague-Dawley rat at 2 mg/kg by LC-MS/MS analysis
- Format: ADME, organism-based
- runParameters: in vivo
measureName: bioavailability (%)

>  <lineNotation>
CC(C)(C)S(=O)(=O)c1ccc2nccc(Nc3n[nH]c4ccc(F)cc34)c2c1

>  <measured>
39

$$$$

* * *

- target: Receptor-interacting serine/threonine-protein kinase 2 (Rattus norvegicus, UniProt G3V783)
- Sequence (G3V783 whole entry): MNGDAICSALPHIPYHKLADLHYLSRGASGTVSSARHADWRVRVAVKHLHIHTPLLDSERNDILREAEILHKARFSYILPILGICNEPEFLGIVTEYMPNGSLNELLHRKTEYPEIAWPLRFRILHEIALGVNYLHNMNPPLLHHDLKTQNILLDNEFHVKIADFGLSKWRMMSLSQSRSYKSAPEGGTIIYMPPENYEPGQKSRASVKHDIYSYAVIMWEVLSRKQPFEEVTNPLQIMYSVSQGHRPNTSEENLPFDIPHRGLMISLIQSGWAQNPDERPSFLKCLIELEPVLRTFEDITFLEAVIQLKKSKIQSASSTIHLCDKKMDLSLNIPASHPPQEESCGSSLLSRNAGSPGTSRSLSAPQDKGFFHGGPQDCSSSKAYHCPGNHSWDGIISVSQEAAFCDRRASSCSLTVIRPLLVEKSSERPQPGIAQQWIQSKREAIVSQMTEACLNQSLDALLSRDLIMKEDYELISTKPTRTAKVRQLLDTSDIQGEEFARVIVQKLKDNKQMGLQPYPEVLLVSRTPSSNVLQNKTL

>  <lineNotation>
CC(C)(C)S(=O)(=O)c1ccc2nccc(Nc3n[nH]c4ccc(F)cc34)c2c1

>  <target>
Receptor-interacting serine/threonine-protein kinase 2 (Rattus norvegicus, UniProt G3V783)

>  <IC50>
2 nM

$$$$

* * *

pIC50: −log10 of the molar value.
The following compounds have recorded pIC50 on Mitogen-activated protein kinase 14 (Homo sapiens).
Sequence (Q16539 whole entry): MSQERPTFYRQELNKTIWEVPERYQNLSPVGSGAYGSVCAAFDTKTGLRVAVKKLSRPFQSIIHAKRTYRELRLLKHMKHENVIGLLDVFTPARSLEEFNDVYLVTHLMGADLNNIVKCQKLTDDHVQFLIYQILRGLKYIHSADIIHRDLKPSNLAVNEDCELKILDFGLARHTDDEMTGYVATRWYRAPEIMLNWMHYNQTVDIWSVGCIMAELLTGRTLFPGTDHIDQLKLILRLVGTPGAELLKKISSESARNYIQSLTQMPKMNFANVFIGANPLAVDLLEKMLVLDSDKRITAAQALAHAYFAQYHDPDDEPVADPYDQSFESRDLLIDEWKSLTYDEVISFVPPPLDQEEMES
measureName: pIC50

>  <lineNotation>
Cc1ccc(O)cc1Nc1ccnc2ccc(C(=O)NCC3CCOCC3)cc12

>  <measured>
< 5.30

$$$$
>  <lineNotation>
CC(C)(C)S(=O)(=O)c1ccc2nccc(Nc3n[nH]c4ccc(F)cc34)c2c1

>  <measured>
5.29

$$$$
>  <lineNotation>
CC(C)S(=O)(=O)c1ccc2nccc(Nc3n[nH]c4ccc(F)cc34)c2c1

>  <measured>
< 5.30

$$$$

* * *

- protocolDetails: Permeability of the compound
- Format: ADME
- runParameters: not told; read-out: permeability

>  <compound>
Cc1ccc(O)cc1Nc1ccnc2ccc(C(=O)NCC3CCOCC3)cc12

>  <Papp [×10⁻⁶ cm/s]>
1.5

$$$$
>  <compound>
Cc1ccc(O)cc1Nc1ccnc2ccc(C(F)(F)F)cc12

>  <Papp [×10⁻⁶ cm/s]>
49

$$$$
>  <compound>
Cc1ccc(O)cc1Nc1ccnc2ccc(-c3cccnc3)cc12

>  <Papp [×10⁻⁶ cm/s]>
23

$$$$
>  <compound>
COc1ccc2nccc(Nc3cc(O)ccc3C)c2c1

>  <Papp [×10⁻⁶ cm/s]>
23

$$$$
>  <compound>
Cc1ccc(O)cc1Nc1ccnc2ccccc12

>  <Papp [×10⁻⁶ cm/s]>
25

$$$$
>  <compound>
Cc1ccc(O)cc1Nc1ccnc2ccc(S(C)(=O)=O)cc12 [GW559768X]

>  <Papp [×10⁻⁶ cm/s]>
7.9

$$$$

* * *

- protocolDetails: Cmax in Sprague-Dawley rat at 2 mg/kg, po administered through cassette dosing as by LC-MS/MS analysis
- Assay type: ADME, organism-based
- Design: dose 2 mg/kg, route oral
- runParameters: in vivo
measureName: Cmax (ng/mL)

>  <lineNotation>
CC(C)S(=O)(=O)c1ccc2nccc(Nc3n[nH]c4ccc(F)cc34)c2c1

>  <unitsLabel>
ng/mL

>  <measured>
370

$$$$
>  <lineNotation>
CC(C)(C)S(=O)(=O)c1ccc2nccc(Nc3n[nH]c4ccc(F)cc34)c2c1

>  <unitsLabel>
ng/mL

>  <measured>
260

$$$$
>  <lineNotation>
CS(=O)(=O)c1ccc2nccc(Nc3n[nH]c4ccc(F)cc34)c2c1

>  <unitsLabel>
ng/mL

>  <measured>
500

$$$$

* * *

- protocolDetails: Volume of distribution at steady state in Sprague-Dawley rat at 2 mg/kg, po or 1 mg/kg, iv by LC-MS/MS analysis
- Format: ADME, organism-based
- runParameters: in vivo, read-out: Vdss

>  <lineNotation>
CC(C)(C)S(=O)(=O)c1ccc2nccc(Nc3n[nH]c4ccc(F)cc34)c2c1

>  <Vd (L/kg)>
2

$$$$

* * *

- protocolDetails: Half life in C57BL/6 mouse at 2 mg/kg, po or 1 mg/kg, iv by LC-MS/MS analysis
- Type: ADME, organism-based
- runParameters: in vivo
measureName: half-life

>  <lineNotation>
CC(C)(C)S(=O)(=O)c1ccc2nccc(Nc3n[nH]c4ccc(F)cc34)c2c1

>  <measured>
2.1 h

$$$$
